Target: human D2long, D2short (Homo sapiens, UniProt P14416)
Sequence (P14416 whole entry): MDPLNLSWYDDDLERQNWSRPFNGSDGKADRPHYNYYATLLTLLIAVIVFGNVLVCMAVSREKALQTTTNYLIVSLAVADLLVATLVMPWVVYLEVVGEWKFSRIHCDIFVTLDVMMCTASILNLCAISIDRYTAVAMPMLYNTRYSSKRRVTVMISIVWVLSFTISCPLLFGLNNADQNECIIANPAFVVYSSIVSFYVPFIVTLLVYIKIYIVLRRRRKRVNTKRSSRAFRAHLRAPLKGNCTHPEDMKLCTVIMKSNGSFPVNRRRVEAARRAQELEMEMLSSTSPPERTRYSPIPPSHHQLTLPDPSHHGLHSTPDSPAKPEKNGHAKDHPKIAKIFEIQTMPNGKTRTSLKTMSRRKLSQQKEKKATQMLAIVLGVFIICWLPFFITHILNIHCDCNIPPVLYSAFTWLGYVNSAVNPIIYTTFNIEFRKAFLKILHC
Experiment: biochemical
Type: binding
Settings: read-out: Ki D2; CHO cell membranes, [3H]spiperone; mean of two to five experiments in triplicate
Description: These experiments have been done according to methods which are described in literature (Hübner, H. et al., J. Med. Chem. (2000), 43, 7562). For the determination of binding affinity to the receptors of the dopamine D2 family membranes were established carrying the human D2long, D2short, D3 or D4.4 receptor subtype stably expressed in Chinese hamster ovary cell lines. […]
parameter: Ki

Could you tell me which Ki is on file for Cc1ccc(CNCC2(F)CCN(C(=O)c3coc4ccccc34)CC2)nc1 [Example E36] ?
> 5 µM

====

Provide the reported Ki of each item.
Target: alpha-1
Experiment: radioligand binding assay, adrenergic alpha-1 receptor, [3H]prazosin
Conditions: porcine cortical membranes, mean of two to five experiments in triplicate, read-out: Ki alpha1

Examples with answers:
{"compound": "COc1c(C(=O)N2CCC(F)(CNCc3ccc(C)cn3)CC2)csc1Br [Example E22]", "system tested": "alpha-1", "parameter": "Ki", "measurement": "0.501 to 5 µM"}
{"compound": "Cc1ccc(CNCC2(F)CCN(C(=O)c3ccc(C)s3)CC2)nc1 [Example E11]", "system tested": "alpha-1", "parameter": "Ki", "measurement": "> 5 µM"}
{"compound": "Cc1ccc(CNCC2(F)CCN(C(=O)c3sccc3Br)CC2)nc1 [Example E5]", "system tested": "alpha-1", "parameter": "Ki", "measurement": "0.501 to 5 µM"}
{"compound": "Cc1ccc(CNCC2(F)CCN(C(=O)c3ccc(-c4ccccn4)s3)CC2)nc1 [Example E14]", "system tested": "alpha-1", "parameter": "Ki", "measurement": "0.501 to 5 µM"}

Would you mind giving Ki for every compound in the list below?
1. Cc1ccc(CNCC2(F)CCN(C(=O)c3sccc3C)CC2)nc1 [Example E9]
2. Cc1ccc(CNCC2(F)CCN(C(=O)c3cc(C)cs3)CC2)nc1 [Example E10]
3. COc1cscc1C(=O)N1CCC(F)(CNCc2ccc(C)cn2)CC1 [Example E20]
4. Cc1ccc(CNCC2(F)CCN(C(=O)c3cc4ccccn4n3)CC2)nc1 [Example E42]
5. Cc1ccc(CNCC2(F)CCN(C(=O)c3coc(Br)c3)CC2)nc1 [Example E34]

1: > 5 µM; 2: 0.501 to 5 µM; 3: > 5 µM; 4: > 5 µM; 5: 0.501 to 5 µM

====

Give measured pKi for each item. Keep answers brief.
Molecular target: alpha-1
Assay: radioligand binding assay, adrenergic alpha-1 receptor, [3H]prazosin
Settings: porcine cortical membranes, mean of two to five experiments in triplicate, read-out: Ki alpha1
pKi: −log10 of the molar value.

Some solved cases for reference:
{"structure smiles string": "Cc1ccc(CNCC2(F)CCN(C(=O)c3ccc(Cl)s3)CC2)nc1", "pKi": "5.30 to 6.30"}
{"structure smiles string": "Cc1ccc(CNCC2(F)CCN(C(=O)c3cnn4ccccc34)CC2)nc1", "pKi": "5.30 to 6.30"}
{"structure smiles string": "Cc1ccc(CNCC2(F)CCN(C(=O)c3ccc(-c4csc(C)n4)s3)CC2)nc1", "pKi": "5.30 to 6.30"}

I have 4 compounds here; please give me pKi for each one.
1. Cc1ccc(CNCC2(F)CCN(C(=O)c3ccoc3)CC2)nc1
2. Cc1ccc(CNCC2(F)CCN(C(=O)c3ccsc3Br)CC2)nc1
3. Cc1ccc(CNCC2(F)CCN(C(=O)c3sc4sccc4c3Cl)CC2)nc1
4. Cc1ccc(CNCC2(F)CCN(C(=O)c3cc4ccccc4o3)CC2)nc1

1: < 5.30; 2: 5.30 to 6.30; 3: 5.30 to 6.30; 4: 5.30 to 6.30

Please report pKi for every entry that follows.
1. Cc1ccc(CNCC2(F)CCN(C(=O)c3sc(Br)c4c3OCCO4)CC2)nc1
2. Cc1ccc(CNCC2(F)CCN(C(=O)c3ccco3)CC2)nc1

5.30 to 6.30
< 5.30
